Biological target: T1, biotinylated goat anti-human kappa light chain
T1 construct: positive control of the ELISA
Experiment: ELISA, positive control; note: test concentration or dose not given here
ASSAY METRIC: optical density

BINDER: 369_C11 (antibody, V domains shown, Group II) VH: EVQLLESGGGLVQPGGSLRLSCAASGFTFSDYGMHWVRQAPGKGLEWVAGINYNGGYTGYADSVKGRFTISRDNSKNTLYLQMNSLRAEDTAVYYCARAATWHDTHLDYWGQGTLVTVSS VL: DIQMTQSPSSLSASVGDRVTITCRASQSILSYLNWYQQKPGKAPKLVIYAATSRASGVPSRFSGSGSGTDFTLTISSLQPEDFATYYCQQSYDTPLTFGGGTKVEIK
MEAS VALUE: 3.48 OD

BINDER: 370_H05 (antibody, V domains shown, Group II) VH: EVQLLESGGGLVQPGGSLRLSCAASGFTFSSYGMHWVRQAPGKGLEWVSNINYNGGYTSYADSVKGRFTISRDNSKNTLYLQMNSLRAEDTAVYYCARAATWHDTHLDYWGQGTLVTVSS VL: DIQMTQSPSSLSASVGDRVTITCRASQSILSYLNWYQQKPGKAPKLLIYAASSLQSGVPSRFSGSGSGTDFTLTISSLQPEDFATYYCQQSDSLPLTFGGGTKVEIK
MEAS VALUE: 3.61 OD

BINDER: 374_H02 (antibody, V domains shown, Group II) VH: EVQLLESGGGLVQPGGSLRLSCAASGFTFSSYGMHWVRQAPGKGLEWVASINYNGGYTSYADSVKGRFTISRDNSKNTLYLQMNSLRAEDTAVYYCARAATWHDTHLDYWGQGTLVTVSS VL: DIQMTQSPSSLSASVGDRVTITCRASQSILSYVNWYQQKPGKAPKLLIYAATSLASGVPSRFSGSGSGTDFTLTISSLQPEDFATYYCQQSYDTPLTFGGGTKVEIK
MEAS VALUE: 3.18 OD
